- assay.overview: Circular dichroism spectroscopy, percent α-helix
- Type: physicochemical
- measurement.parameters: CD spectroscopy; Table 7
Where a SMILES comes first, the peptide text is derived from it.
Measured α-helix (%) of individual entries
Numeric answer only, unit % assumed.

compound	display.unit	quantitative.readout
CC(=O)N[C@H]1CCCCNC(=S)SC[C@@H](C(=O)N[C@@H](Cc2ccc(O)cc2)C(=O)N[C@@H](Cc2c[nH]c3ccccc23)C(=O)N[C@@H](CC(N)=O)C(=O)N[C@@H](CC(C)C)C(=O)N[C@@H](CC(C)C)C(=O)N[C@@H](CO)C(=O)N2CCC[C@H]2C(N)=O)NC(=O)[C@H](C)NC(=O)[C@H](Cc2ccccc2)NC(=O)[C@H](CO)NC1=O [PMI(1,5)-a]	%	6.50
CC(=O)N[C@H](C(=O)N[C@@H](CO)C(=O)N[C@@H](Cc1ccccc1)C(=O)N[C@@H](CCCCN)C(=O)N[C@@H](CCC(N)=O)C(=O)N[C@@H](Cc1ccc(O)cc1)C(=O)N[C@@H](Cc1c[nH]c2ccccc12)C(=O)N[C@@H](CS)C(=O)N[C@@H](CC(C)C)C(=O)N[C@@H](CC(C)C)C(=O)N[C@@H](CO)C(=O)N[C@@H](CCCNC(=N)N)C(N)=O)[C@@H](C)O [^DTCPMI Ctrl., reference compound]	%	16.6

// switching to the query compound
[in] Reported α-helix (%), compound CC(=O)N[C@H](C(=O)N[C@@H](CO)C(=O)N[C@@H](Cc1ccccc1)C(=O)N[C@@H](C)C(=O)N[C@@H](CCC(=O)O)C(=O)N[C@@H](Cc1ccc(O)cc1)C(=O)N[C@@H](Cc1c[nH]c2ccccc12)C(=O)N[C@@H](CC(N)=O)C(=O)N[C@@H](CC(C)C)C(=O)N[C@@H](CC(C)C)C(=O)N[C@@H](CO)C(=O)N1CCC[C@H]1C(N)=O)[C@@H](C)O [PMI-0, reference compound] (Ac-TSFAEYWNLLSP-NH2) : ____
[out] 9.77

====

- assay.overview: Circular dichroism spectroscopy, percent α-helix
- Assay type: physicochemical
- measurement.parameters: CD spectroscopy; Table 3
Sorting guide: entries reporting α-helix (%) beneath 3% go in the met pile, the rest go in the not met pile.

[in] Regarding CC(=O)N[C@H]1CSC(=S)NCCCC[C@@H](C(=O)N[C@@H](Cc2ccc(O)cc2)C(=O)N[C@@H](Cc2c[nH]c3ccccc23)C(=O)N[C@@H](CC(N)=O)C(=O)N[C@@H](CC(C)C)C(=O)N[C@@H](CC(C)C)C(=O)N[C@@H](CO)C(=O)N2CCC[C@H]2C(N)=O)NC(=O)[C@H](C)NC(=O)[C@H](Cc2ccccc2)NC(=O)[C@H](CO)NC1=O [PMI(1,5)-b] , kindly confirm whether its α-helix (%) is beneath 3%.
[out] not met

[in] Regarding CC(=O)N[C@H](C(=O)N[C@H]1CSC(=S)NCCCC[C@@H](C(=O)N[C@@H](Cc2c[nH]c3ccccc23)C(=O)N[C@@H](CC(N)=O)C(=O)N[C@@H](CC(C)C)C(=O)N[C@@H](CC(C)C)C(=O)N[C@@H](CO)C(=O)N2CCC[C@H]2C(N)=O)NC(=O)[C@H](CCC(=O)O)NC(=O)[C@H](C)NC(=O)[C@H](Cc2ccccc2)NC1=O)[C@@H](C)O [PMI(2,6)-b] , kindly confirm whether its α-helix (%) is beneath 3%.
[out] not met
